# study_system: MARV GP [change] (Lake Victoria marburgvirus) (UniProt Q1PD50)
# Sequence (Q1PD50 19-648): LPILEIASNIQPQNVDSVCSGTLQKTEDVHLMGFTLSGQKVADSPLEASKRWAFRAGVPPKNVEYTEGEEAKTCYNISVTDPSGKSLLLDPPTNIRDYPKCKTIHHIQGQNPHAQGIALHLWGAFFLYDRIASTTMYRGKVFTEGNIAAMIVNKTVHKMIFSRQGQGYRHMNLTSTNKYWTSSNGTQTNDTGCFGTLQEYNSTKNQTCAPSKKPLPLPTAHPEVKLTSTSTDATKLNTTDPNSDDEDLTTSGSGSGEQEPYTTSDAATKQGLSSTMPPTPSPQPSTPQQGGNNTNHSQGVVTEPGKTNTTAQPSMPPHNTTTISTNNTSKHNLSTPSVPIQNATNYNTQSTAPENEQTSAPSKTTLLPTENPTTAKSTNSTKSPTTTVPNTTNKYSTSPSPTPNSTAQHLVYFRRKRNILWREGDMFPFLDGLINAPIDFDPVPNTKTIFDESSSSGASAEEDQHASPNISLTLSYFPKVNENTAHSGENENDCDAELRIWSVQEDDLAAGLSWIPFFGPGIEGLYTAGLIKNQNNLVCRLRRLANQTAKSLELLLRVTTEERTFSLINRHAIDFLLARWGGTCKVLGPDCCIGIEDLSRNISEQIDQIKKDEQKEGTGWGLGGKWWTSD
measured_metric: EC50

>>> result("EBOV-507 (antibody, V domains shown) VH: QVQLVQSGAEVKKPGASVKVSCKASGYTFNNYLINWVRQAPGQGLEWMGWINPHSGGTEYAQQFQGRLTVTRDTSIRTAYMELRGLTFDDSAMYYCWIWFRSETFDFWGQGTLVTVSS VL: DIQMTQSPSAMSASVGDRVTITCRASQDISNYLAWFQQKPGQGPKRLIFEASILHSGVPSRFSGSGSGTEFTLTISSLQPEDFATYYCLQHNTYLTFGQGTKVEIK")
"> 10 µg/mL"
>>> result("EBOV-517 (antibody, V domains shown) VH: EVQLVESGGGLVQPGGSLRLSCGASGFTFNKYWMTWVRQAPGKGLEWVANINQDGSEKYFAESVKGRFTVSRDNAKNSLYLQMNSLRAEDTAVYYCARGASIEVEILYYYHMDVWGKGTLVTVSS VL: EIVMTQSPATLSVSPGERATLSCRASQSITTHLAWYQQKPGQAPRLLIYDTSTRATGIPARFSGSGSGTEFTLTISNMQSEDFAVYYCQQYHTWPPLTFGGGTKVEIK")
"> 10 µg/mL"
